Sourced from the Human Domainome abundance scans (Beltran et al. 2025)

A collection of variants and their measured abundance fitness
B1: Arginine-glutamic acid dipeptide repeats protein, residues 502 to 543; numbered along this chain, Q9P2R6 (parent)
chain: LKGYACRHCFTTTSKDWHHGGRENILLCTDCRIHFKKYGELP

Variants of: B1
Experiment Notes: abundance fitness (aPCA) (normalised: wild type 0, dead -1); higher = more abundant; growth selection in yeast, the domain comes from the species named
Condition Info: Homo sapiens

QUERY: Could you please provide reported abundance fitness for LKGYACRHCFTTTSKDWHHGGRENILLCTDCRIHFMKYGELP [K36M] ? Thanks!
RESULT: -0.095

QUERY: Output measured abundance fitness for this item: LKGYACRHCFTTTSKDWHHGGRENILLCTDCRIHFSKYGELP [K36S]
RESULT: 0.008

QUERY: Tell us which abundance fitness value is on record for LKGYACRHCFTTTSKDWHHGGRENILLCTDCRIHFKQYGELP [K37Q]
RESULT: -0.027

QUERY: Provide only the value of recorded abundance fitness for LKGYACRHMFTTTSKDWHHGGRENILLCTDCRIHFKKYGELP [C9M]
RESULT: -0.542

QUERY: Input LKGYACRHCFTTTSKDWHHGGRENILLCTDCMIHFKKYGELP [R32M] , output reported abundance fitness.
RESULT: -0.017

QUERY: Hello, please tell me recorded abundance fitness for this one: LKGYACRHCFTTTSKDWHHGGRENIELCTDCRIHFKKYGELP [L26E]
RESULT: -0.167

QUERY: Please indicate abundance fitness recorded for LKGYACRHCFTTTSKDWHHGGRENILLCTSCRIHFKKYGELP [D30S]
RESULT: -0.104

QUERY: Return reported abundance fitness. Input variant: LKFYACRHCFTTTSKDWHHGGRENILLCTDCRIHFKKYGELP [G3F]
RESULT: -0.247

QUERY: Give me measured abundance fitness, please, for this variant: LKGYACRHCFTTTGKDWHHGGRENILLCTDCRIHFKKYGELP [S14G]
RESULT: -0.291

QUERY: Supply abundance fitness value. Item: LKGYACRHCFTTTSKDWHHQGRENILLCTDCRIHFKKYGELP [G20Q]
RESULT: -0.179

QUERY: For the variant LKGYACRHCFTTTSKDWHHGGRMNILLCTDCRIHFKKYGELP [E23M] , report abundance fitness.
RESULT: -0.187
